Origin of measurements: the RNAGym collection of RNA variant scans (doi:10.1021/acssynbio.7b00057)

B1: Pistol ribozyme (parent)
chain: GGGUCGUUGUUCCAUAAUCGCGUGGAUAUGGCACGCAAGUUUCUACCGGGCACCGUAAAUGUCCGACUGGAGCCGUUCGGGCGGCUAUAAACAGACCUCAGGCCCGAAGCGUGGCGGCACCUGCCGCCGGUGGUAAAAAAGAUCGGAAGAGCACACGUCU

# Variants of: B1
# measurement-description: aptazyme ON/OFF ratio, guanine; higher = stronger switching; co-transcriptional cleavage with and without guanine
measured-quantity: aptazyme ON/OFF ratio

{"variant-code": "U7A G9A U11C C13U", "measured-quantity": "aptazyme ON/OFF ratio", "val": 1.03}
{"variant-code": "U7A U8C G9A U11C C13A", "measured-quantity": "aptazyme ON/OFF ratio", "val": 1.06}
{"variant-code": "U7G U8A G9U U11A C13G", "measured-quantity": "aptazyme ON/OFF ratio", "val": 1.02}
{"variant-code": "U7A G9C U10G U11G C12A C13A", "measured-quantity": "aptazyme ON/OFF ratio", "val": 1.11}
{"variant-code": "U8A U10C U11G C12G C13U", "measured-quantity": "aptazyme ON/OFF ratio", "val": 1.14}
{"variant-code": "U10C C13U", "measured-quantity": "aptazyme ON/OFF ratio", "val": 1.08}
{"variant-code": "U7A U8G G9A U10A U11C C12G C13U", "measured-quantity": "aptazyme ON/OFF ratio", "val": 1.33}
{"variant-code": "U8A G9U U10C U11G C13A", "measured-quantity": "aptazyme ON/OFF ratio", "val": 1.12}
{"variant-code": "U7G U8A U10A C12A C13U", "measured-quantity": "aptazyme ON/OFF ratio", "val": 1.08}
{"variant-code": "U7G U8C G9A U10G U11A C12G C13A", "measured-quantity": "aptazyme ON/OFF ratio", "val": 1.09}
{"variant-code": "U8A G9C U10A C13U", "measured-quantity": "aptazyme ON/OFF ratio", "val": 1.13}
